target: Protein Mdm4 (Homo sapiens) + E3 ubiquitin-protein ligase Mdm2 (Homo sapiens) (UniProt O15151+Q00987); assay: inhibitors of human Mdm2-MdmX association, primary screen, cell-based, luminescence, split luciferase, SaOS-2, uHTS (AID 485346); details: SaOS-2 split-luciferase Mdm2/MdmX complementation, at 8 µM, hits give high values
Sequence (O15151 whole entry, looked up): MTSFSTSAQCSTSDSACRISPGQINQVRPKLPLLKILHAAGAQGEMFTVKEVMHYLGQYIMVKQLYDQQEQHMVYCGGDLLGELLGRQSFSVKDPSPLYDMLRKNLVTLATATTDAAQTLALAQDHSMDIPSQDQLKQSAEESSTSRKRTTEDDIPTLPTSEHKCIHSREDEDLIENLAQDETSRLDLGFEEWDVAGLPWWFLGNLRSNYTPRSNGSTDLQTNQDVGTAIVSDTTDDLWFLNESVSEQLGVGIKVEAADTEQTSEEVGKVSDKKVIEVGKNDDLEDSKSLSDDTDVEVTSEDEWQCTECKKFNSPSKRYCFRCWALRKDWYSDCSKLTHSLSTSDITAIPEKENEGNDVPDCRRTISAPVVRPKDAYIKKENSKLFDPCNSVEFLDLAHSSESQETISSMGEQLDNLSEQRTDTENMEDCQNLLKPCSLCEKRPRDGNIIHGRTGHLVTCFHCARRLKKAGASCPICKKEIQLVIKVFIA
Sequence (Q00987 whole entry, looked up): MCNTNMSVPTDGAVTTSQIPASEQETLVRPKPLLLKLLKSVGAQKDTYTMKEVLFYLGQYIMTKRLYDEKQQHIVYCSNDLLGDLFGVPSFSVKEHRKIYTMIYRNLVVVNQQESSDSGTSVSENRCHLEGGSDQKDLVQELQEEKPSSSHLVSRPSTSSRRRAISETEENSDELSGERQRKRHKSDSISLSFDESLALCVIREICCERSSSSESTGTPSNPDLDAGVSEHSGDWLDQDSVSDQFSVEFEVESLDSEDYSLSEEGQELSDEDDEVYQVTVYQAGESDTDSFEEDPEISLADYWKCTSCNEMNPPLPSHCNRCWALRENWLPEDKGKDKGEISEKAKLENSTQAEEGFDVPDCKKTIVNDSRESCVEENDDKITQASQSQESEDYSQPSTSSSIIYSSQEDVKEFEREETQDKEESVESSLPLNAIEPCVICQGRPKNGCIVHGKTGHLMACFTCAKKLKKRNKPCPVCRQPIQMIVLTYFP
About 10,000 (3%) of roughly 330,000 compounds were called active. The sample as a whole holds a higher share of actives than the screen did.
measured.metric: inhibition (%)
Value expressed in %; do not type the unit.

# inhibition (compound: OC1/C(=C/c2ccc(C(F)(F)F)cc2)N2CCC1CC2 (stereo unspecified) ) is 17.5

# inhibition (compound: "CC(=NCc1ccc2c(c1)OCO2)c1c(O)[nH]c(=O)[nH]c1=O" ) is -16

# inhibition (compound: "CCCCCCCCCCCCn1ccc(=N)cc1" ) is 97.2

# inhibition (compound: CCOP(=O)(OCC)C(O)c1ccc(OC)cc1OC (stereo unspecified) ) is 19.2

# inhibition (compound: "COc1ccc(CCn2c(O)c(C=NC3CC3)c(=O)[nH]c2=O)cc1OC" ) is 24.7

# inhibition (compound: "NCCc1ccc(S(=O)(=O)F)cc1" ) is 5.92

# inhibition (compound: "Cn1c(C(=O)N2CCC(C(=O)N3CCC4(CC3)OCCO4)CC2)cc2sccc21" ) is -1.94

# inhibition (compound: O=C1C2(Cl)C3(Cl)C4(Cl)C(Cl)(Cl)C5(Cl)C3(Cl)C1(Cl)C5(Cl)C24Cl (stereo unspecified) ) is 99.3

# inhibition (compound: CCNc1nc2[nH]c(=O)c3c(c2s1)OC(N)=C(C#N)C3c1cccs1 (stereo unspecified) ) is 17.9

# inhibition (compound: "Cc1cccc2c(CCN)c[nH]c12" ) is 13.4

# inhibition (compound: N#CC1=C(N)Oc2c(c(=O)oc3ccccc23)C1c1ccccc1OC(=O)c1cccs1 (stereo unspecified) ) is 62.3

====

target: Protein Mdm4 (Homo sapiens) + E3 ubiquitin-protein ligase Mdm2 (Homo sapiens) (UniProt O15151+Q00987); assay: inhibitors of human Mdm2-MdmX association, primary screen, cell-based, luminescence, split luciferase, SaOS-2, uHTS (AID 485346); details: SaOS-2 split-luciferase Mdm2/MdmX complementation, at 8 µM, hits give high values
In all, about 330,000 compounds went through this assay and about 10,000 (3%) were called active. The sample as a whole holds a higher share of actives than the screen did.
So I've got a bunch of compounds here, and I need their inhibition values.
Value expressed in %; do not type the unit.

# inhibition (compound: COc1ccc(C2N3CC(C)(C)CN23)cc1 (stereo not given) ) is 4.71

# inhibition (compound: "O=c1[nH]c(=O)n(-c2ccccc2)c(O)c1C=NC12CN3CN(CN(C3)C1)C2" ) is -21.9

# inhibition (compound: CC(Cc1ccccc1)NCCC(c1ccccc1)c1ccccc1 (stereo not given) ) is 63

# inhibition (compound: O=C1NC(=O)C(CCc2ccccn2)(Cc2cccc(Cl)c2Cl)C(=O)N1c1ccc(Br)cc1 (stereo not given) ) is 17.3

# inhibition (compound: "COc1ccc(CCn2c(O)c(C=NCCCn3ccnc3)c(=O)[nH]c2=O)cc1OC" ) is -17.9

# inhibition (compound: "COC(=O)C1=C(c2ccc(F)cc2OCc2ccccc2)C[C@@H]2CC[C@H]1N2C(=O)NCc1ccc(OC)c(OC)c1" ) is 14.8

# inhibition (compound: "COc1cc(-n2c(=S)[nH]c3ccc(C)cc3c2=O)c(Cl)cc1Cl" ) is 40.1

# inhibition (compound: "COc1ccccc1N=C1SCCCN1C" ) is -4.32

# inhibition (compound: CCOP(=O)(OCC)C(NC(=O)c1ccc(OC)cc1)C(Cl)(Cl)Cl (stereo not given) ) is 16.4

# inhibition (compound: "COC(=O)C1=C(c2ccc(-c3ccccc3)c(F)c2)C[C@@H]2CC[C@H]1N2C(=O)NCc1ccc(F)cc1" ) is 21.7
